# experimental.protocol: Cytotoxicity, CellTiter-Blue, OM-10.1 cells
# Format: cell-based
# assay.conditions: human; 48 h treatment; mean ± SD, n = 3
Items are presented alongside their recorded CC50.

Please review the following examples before continuing.
{"molecule": "CC(=O)O[C@@]12C[C@@H](C)[C@@]3(O)[C@@H](C=C(CO)C[C@]4(O)C(=O)C(C)=C[C@@H]34)[C@@H]1C2(C)C [Prostratin]", "measurement.kind": "CC50", "obs.value": "> 8000 nM"}
{"molecule": "CCN(CC)Cc1ccc2cc(COC(=O)Nc3ccc(C(=O)NO)cc3)ccc2c1 [Givinostat]", "measurement.kind": "CC50", "obs.value": "420 nM"}
{"molecule": "CN(C)Cc1c(C(=O)NCCOc2ccc(C(=O)NO)cc2)oc2ccccc12 [PCI-24781]", "measurement.kind": "CC50", "obs.value": "400 nM"}

QUERY: Input CC(C)[C@H]1C(=O)N[C@H](CO)Cc2cc(NC(=O)/C=C/C=C/c3ccc(C(F)(F)F)cc3)ccc2N1C [TPPB] , output reported CC50.
RESULT: > 8000 nM

###

# experimental.protocol: Cytotoxicity, CellTiter-Blue, ACH-2 cells
# Assay type: cell-based
# assay.conditions: human; 48 h treatment; mean ± SD, n = 3
measurement.kind: CC50 at 48 h

QUERY: Look up and report measured CC50 at 48 h for this entry: CC(C)C1C(=O)NC(CO)Cc2c[nH]c3cccc(c23)N1C (single isomer, unassigned; (-)) [(-)-Indolactam V]
RESULT: > 8 µM

Numbers sourced from paper PMC7354613.
